B1: HDV Ribozyme (parent)
chain: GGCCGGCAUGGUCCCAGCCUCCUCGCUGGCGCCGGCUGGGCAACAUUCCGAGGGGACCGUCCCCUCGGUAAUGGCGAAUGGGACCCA

variants of: B1; assay: self-cleavage, relative activity (ratio to wild type); higher = more cleavage; co-transcriptional
// values below are reported self-cleavage
Answer with a number only.

Guide cases for self-cleavage, answers given:
{"VARIANT_ANNOTATION": "C33G C66U", "self-cleavage": 0.181}
{"VARIANT_ANNOTATION": "C48U C85G", "self-cleavage": 0.941}

Write down self-cleavage measured for item U60G U65G
0.883

Write down self-cleavage measured for item G5C A83G
0.0519

Write down self-cleavage measured for item C49G U72G
0.604

Write down self-cleavage measured for item U60C C62U
0.997
